- TESTED SYSTEM: UniProt P50406
- Sequence (P50406 whole entry): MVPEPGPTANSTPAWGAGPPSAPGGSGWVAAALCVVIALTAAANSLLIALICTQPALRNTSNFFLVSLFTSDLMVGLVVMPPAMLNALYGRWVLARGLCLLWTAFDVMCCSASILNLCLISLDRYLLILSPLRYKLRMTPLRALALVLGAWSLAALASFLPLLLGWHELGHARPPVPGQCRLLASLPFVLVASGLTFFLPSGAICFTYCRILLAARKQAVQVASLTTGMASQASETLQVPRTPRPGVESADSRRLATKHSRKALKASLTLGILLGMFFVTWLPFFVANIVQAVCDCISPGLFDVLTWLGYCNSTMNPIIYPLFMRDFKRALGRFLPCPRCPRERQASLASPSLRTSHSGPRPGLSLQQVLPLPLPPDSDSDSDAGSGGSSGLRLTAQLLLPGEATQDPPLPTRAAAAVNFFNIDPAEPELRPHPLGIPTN
- TEST METHOD NOTES: Binding assay 5-HT6 (h), [3H]LSD, CHO cells
- Parameters: expressed in transfected cells; host or cells: CHO cells
- EXPERIMENTAL CONTEXT: read-out: 5-HT6
Classification field: enter MET for inhibition at 1 µM values not below 80%, NOT MET for values below it.

{"columns": ["COMPOUND STRUCTURE STRING", "TESTED SYSTEM", "ASSIGNED CLASS"],
 "data": [
  ["O=S(=O)(NCCCCN1CCN(c2cccc3c2OCCO3)CC1)c1ccc(Cl)s1", "UniProt P50406", "NOT MET"],
  ["O=c1[nH]c2ccc(S(=O)(=O)NCCCCN3CCN(c4cccc5c4OCCO5)CC3)cc2o1", "UniProt P50406", "NOT MET"],
  ["Cc1cccc(S(=O)(=O)NCCCCN2CCN(c3cccc4c3OCCO4)CC2)c1", "UniProt P50406", "NOT MET"],
  ["O=S(=O)(NCCCCN1CCN(c2cccc3c2OCCO3)CC1)c1cc2ccc(Cl)cc2s1", "UniProt P50406", "NOT MET"],
  ["Cc1[nH]c2ccc(Cl)cc2c1C1=CCN(CCCCNS(=O)(=O)c2cccc(Cl)c2)CC1", "UniProt P50406", "MET"],
  ["O=S(=O)(NCCCN1CCN(c2nsc3ccccc23)CC1)c1cccs1", "UniProt P50406", "MET"],
  ["O=S(=O)(NCCCCN1CCN(c2cccc3[nH]ccc23)CC1)c1cnc2ccccn12", "UniProt P50406", "NOT MET"],
  ["Cc1[nH]c2ccc(Cl)cc2c1C1=CCN(CCCCNS(=O)(=O)c2ccc(F)cc2)CC1", "UniProt P50406", "MET"],
  ["O=S(=O)(NCCCCN1CCN(c2nsc3ccccc23)CC1)c1cc2ccccc2s1", "UniProt P50406", "MET"],
  ["O=S(=O)(NCCCN1CCC(c2noc3cc(F)ccc23)CC1)c1cc2ccccc2s1", "UniProt P50406", "MET"],
  ["Cc1[nH]c2ccc(Cl)cc2c1C1=CCN(CCNS(=O)(=O)c2ccc(Cl)cc2)CC1", "UniProt P50406", "MET"],
  ["O=S(=O)(NCCCCN1CCN(c2cccc3c2OCCO3)CC1)c1csc2ccccc12", "UniProt P50406", "NOT MET"],
  ["O=S(=O)(NCCCN1CCN(c2nsc3ccccc23)CC1)c1ccc2c(c1)OCO2", "UniProt P50406", "MET"],
  ["O=S(=O)(NCCCCN1CCN(c2nsc3ccccc23)CC1)c1ccc(F)c(Cl)c1", "UniProt P50406", "MET"],
  ["O=S(=O)(NCCCN1CCC(c2noc3cc(F)ccc23)CC1)c1cccs1", "UniProt P50406", "MET"]
]}
